- Test system: 317291-083-R-J1-PDC complex spheroid growth
- ASSAY SUMMARY: Anticancer human tumor 317291-083-R-J1-PDC patient-derived soft tissue sarcoma cell line growth inhibition [Asc]
- ASSAY CONTEXT: curve of first compound; second compound 0.949 µM
Reported IC50 values are given for each entry in this list.

INSERT INTO measurements (compound, observed) VALUES
  ('C#Cc1c(F)ccc2cc(O)cc(-c3ncc4c(N5CC6CCC(C5)N6)nc(OCC56CCCN5CC(F)C6)nc4c3F)c12 (centres undefined) + CCN1C(C(=O)NC23CCC(C(=O)O)(CC2)CC3)C(c2cccc(Cl)c2F)C2(C(=O)Nc3cc(Cl)ccc32)C12CCCCC2', '> 10 µM'),
  ('O=C(c1cc(Cc2n[nH]c(=O)c3ccccc23)ccc1F)N1CCN(C(=O)C2CC2)CC1 + CCN1C(C(=O)NC23CCC(C(=O)O)(CC2)CC3)C(c2cccc(Cl)c2F)C2(C(=O)Nc3cc(Cl)ccc32)C12CCCCC2', '> 10 µM'),
  ('NC1CCC(NC2CC2c2ccccc2)CC1 (centres undefined) + CCN1C(C(=O)NC23CCC(C(=O)O)(CC2)CC3)C(c2cccc(Cl)c2F)C2(C(=O)Nc3cc(Cl)ccc32)C12CCCCC2', '> 0.1 µM');

Moving on to the next compound.
Task item: Tell us which IC50 value is on record for CNC(C)C(=O)NC1CN(S(=O)(=O)c2cccc(S(=O)(=O)N3CCC4CCC(C(=O)NC(c5ccccc5)c5ccccc5)N4C(=O)C(NC(=O)C(C)NC)C3)c2)CCC2CCC(C(=O)NC(c3ccccc3)c3ccccc3)N2C1=O (centres undefined) + CCN1C(C(=O)NC23CCC(C(=O)O)(CC2)CC3)C(c2cccc(Cl)c2F)C2(C(=O)Nc3cc(Cl)ccc32)C12CCCCC2
Reply: > 1 µM

----------
- Test system: 317291-083-R-J1-PDC complex spheroid growth
- ASSAY SUMMARY: Anticancer human tumor 317291-083-R-J1-PDC cell line growth inhibition [Asc];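 further: compound exposure lasted seven days after spheroids formed for three days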
- ASSAY CONTEXT: curve of first compound; second compound 0.1 µM
REPORTED ENDPOINT: IC50 (nM)
# unit: nM | format: bare number

Field: example entries. Status: answers known.
INSERT INTO results (compound, assayed_system, observed) VALUES
  ('COc1c(OCCCN2CCOCC2)ccc2c3n(c(=NC(=O)c4cnc(N)nc4)nc12)CCN3 + Cc1c(S(C)(=O)=O)c(-c2cc(F)cc(N3CCN(c4ccc(NS(=O)(=O)c5ccc(NC(CCN6CCC(C(=O)OCCCP(=O)(O)O)CC6)CSc6ccccc6)c(S(=O)(=O)C(F)(F)F)c5)cc4)CC3)c2)c(-c2ccc(Cl)cc2)n1C(C)C', '317291-083-R-J1-PDC complex spheroid growth', 88),
  ('NC(=O)C(=Cn1cnc(-c2cc(C(F)(F)F)cc(C(F)(F)F)c2)n1)c1cncnc1 + Cc1c(S(C)(=O)=O)c(-c2cc(F)cc(N3CCN(c4ccc(NS(=O)(=O)c5ccc(NC(CCN6CCC(C(=O)OCCCP(=O)(O)O)CC6)CSc6ccccc6)c(S(=O)(=O)C(F)(F)F)c5)cc4)CC3)c2)c(-c2ccc(Cl)cc2)n1C(C)C', '317291-083-R-J1-PDC complex spheroid growth', 26.3),
  ('CNC(C)C(=O)NC1CN(S(=O)(=O)c2cccc(S(=O)(=O)N3CCC4CCC(C(=O)NC(c5ccccc5)c5ccccc5)N4C(=O)C(NC(=O)C(C)NC)C3)c2)CCC2CCC(C(=O)NC(c3ccccc3)c3ccccc3)N2C1=O (centres undefined) + Cc1c(S(C)(=O)=O)c(-c2cc(F)cc(N3CCN(c4ccc(NS(=O)(=O)c5ccc(NC(CCN6CCC(C(=O)OCCCP(=O)(O)O)CC6)CSc6ccccc6)c(S(=O)(=O)C(F)(F)F)c5)cc4)CC3)c2)c(-c2ccc(Cl)cc2)n1C(C)C', '317291-083-R-J1-PDC complex spheroid growth', 138),
  ('CCN1CCN(Cc2ccc(Nc3ncc(F)c(-c4cc(F)c5nc(C)n(C(C)C)c5c4)n3)nc2)CC1 + Cc1c(S(C)(=O)=O)c(-c2cc(F)cc(N3CCN(c4ccc(NS(=O)(=O)c5ccc(NC(CCN6CCC(C(=O)OCCCP(=O)(O)O)CC6)CSc6ccccc6)c(S(=O)(=O)C(F)(F)F)c5)cc4)CC3)c2)c(-c2ccc(Cl)cc2)n1C(C)C', '317291-083-R-J1-PDC complex spheroid growth', 647);

Task item: Provide one value: measured IC50 of C#Cc1c(F)ccc2cc(O)cc(-c3ncc4c(N5CC6CCC(C5)N6)nc(OCC56CCCN5CC(F)C6)nc4c3F)c12 (centres undefined) + CNC(C)C(=O)NC1CN(S(=O)(=O)c2cccc(S(=O)(=O)N3CCC4CCC(C(=O)NC(c5ccccc5)c5ccccc5)N4C(=O)C(NC(=O)C(C)NC)C3)c2)CCC2CCC(C(=O)NC(c3ccccc3)c3ccccc3)N2C1=O
Reply: 3610

Task item: Quick one: give measured IC50 for C=CC(=O)N1CCN(c2nc(=O)n(-c3c(C)ccnc3C(C)C)c3nc(-c4c(O)cccc4F)c(F)cc23)C(C)C1 (centres undefined) + CNC(C)C(=O)NC1CN(S(=O)(=O)c2cccc(S(=O)(=O)N3CCC4CCC(C(=O)NC(c5ccccc5)c5ccccc5)N4C(=O)C(NC(=O)C(C)NC)C3)c2)CCC2CCC(C(=O)NC(c3ccccc3)c3ccccc3)N2C1=O
Reply: 4400

Task item: State, in one line, measured IC50 of CCN1CCN(Cc2ccc(Nc3ncc(F)c(-c4cc(F)c5nc(C)n(C(C)C)c5c4)n3)nc2)CC1 + CNC(C)C(=O)NC1CN(S(=O)(=O)c2cccc(S(=O)(=O)N3CCC4CCC(C(=O)NC(c5ccccc5)c5ccccc5)N4C(=O)C(NC(=O)C(C)NC)C3)c2)CCC2CCC(C(=O)NC(c3ccccc3)c3ccccc3)N2C1=O
Reply: 71
